System: E. faecium E0506
protocol details: MIC assay
Assay type: cell-based, Enterococcus faecium
test parameters: E. faecium E0506, VanA
Description: The antibacterial activity of the compounds was tested against a panel of bacteria, including Gram-positive bacteria (S. aureus ATCC29213, S. aureus USA300, S. aureus LIM-2, NR-45881, S. aureus HIP13419, NR-46413, E. faecium E155, E. faecium E7314, E. faecium E980, E. faecalis E1246, E. faecalis E7406 and S. pneumonia 153). […] The MICs were determined from the median of a minimum of triplicates.

| smi | endpoint unit | MIC |
| --- | --- | --- |
| CN[C@H](CC(C)C)C(=O)N[C@H]1C(=O)N[C@@H](CC(N)=O)C(=O)N[C@H]2C(=O)N[C@H]3C(=O)N[C@H](C(=O)N[C@H](C(=O)O)c4cc(O)cc(O)c4-c4cc3ccc4O)[C@H](O)c3ccc(c(Cl)c3)Oc3cc2cc(c3O[C@@H]2O[C@H](CO)[C@@H](O)[C@H](O)[C@H]2O[C@H]2C[C@](C)(NCc3ccc(N=C(N)NC/C=C(\C)CCC=C(C)C)cc3)[C@H](O)[C@H](C)O2)Oc2ccc(cc2Cl)[C@H]1O | µg/mL | 2 |

====

Test system: E. faecium E155
protocol details: microbe, parasite or virus in culture
Assay type: cell-based, Enterococcus faecium
test parameters: E. faecium E155 VRE (VanA)

| smi | MIC (µg/mL) |
| --- | --- |
| CCCCCCCCCCCCNC(N)=Nc1ccc(CN[C@@]2(C)C[C@H](O[C@H]3[C@H](Oc4c5cc6cc4Oc4ccc(cc4Cl)[C@@H](O)[C@@H](NC(=O)[C@@H](CC(C)C)NC)C(=O)N[C@@H](CC(N)=O)C(=O)N[C@H]6C(=O)N[C@H]4C(=O)N[C@H](C(=O)N[C@H](C(=O)O)c6cc(O)cc(O)c6-c6cc4ccc6O)[C@H](O)c4ccc(c(Cl)c4)O5)O[C@H](CO)[C@@H](O)[C@@H]3O)O[C@@H](C)[C@H]2O)cc1 | 0.125 |
| CCCCCCCCCCNC(N)=Nc1ccc(CN[C@@]2(C)C[C@H](O[C@H]3[C@H](Oc4c5cc6cc4Oc4ccc(cc4Cl)[C@@H](O)[C@@H](NC(=O)[C@@H](CC(C)C)NC)C(=O)N[C@@H](CC(N)=O)C(=O)N[C@H]6C(=O)N[C@H]4C(=O)N[C@H](C(=O)N[C@H](C(=O)O)c6cc(O)cc(O)c6-c6cc4ccc6O)[C@H](O)c4ccc(c(Cl)c4)O5)O[C@H](CO)[C@@H](O)[C@@H]3O)O[C@@H](C)[C@H]2O)cc1 | 0.25 |
| CN[C@H](CC(C)C)C(=O)N[C@H]1C(=O)N[C@@H](CC(N)=O)C(=O)N[C@H]2C(=O)N[C@H]3C(=O)N[C@H](C(=O)N[C@H](C(=O)O)c4cc(O)cc(O)c4-c4cc3ccc4O)[C@H](O)c3ccc(c(Cl)c3)Oc3cc2cc(c3O[C@@H]2O[C@H](CO)[C@@H](O)[C@H](O)[C@H]2O[C@H]2C[C@](C)(NCc3ccc(N=C(N)NCC45CC6CC(CC(C6)C4)C5)cc3)[C@H](O)[C@H](C)O2)Oc2ccc(cc2Cl)[C@H]1O | 2 |

====

Item-by-item account of MIC
Tested on: S. aureus ATCC29213
protocol details: MIC assay
Format: cell-based, Staphylococcus aureus
test parameters: S. aureus ATCC29213 MSSA

| molecule | MIC |
| --- | --- |
| CN[C@H](CC(C)C)C(=O)N[C@H]1C(=O)N[C@@H](CC(N)=O)C(=O)N[C@H]2C(=O)N[C@H]3C(=O)N[C@H](C(=O)N[C@H](C(=O)O)c4cc(O)cc(O)c4-c4cc3ccc4O)[C@H](O)c3ccc(c(Cl)c3)Oc3cc2cc(c3O[C@@H]2O[C@H](CO)[C@@H](O)[C@H](O)[C@H]2O[C@H]2C[C@](C)(NCc3ccc(N=C(N)NC/C=C(\C)CCC=C(C)C)cc3)[C@H](O)[C@H](C)O2)Oc2ccc(cc2Cl)[C@H]1O | ≤7.812 ng/mL |
| CCCCCCCNC(N)=Nc1ccc(CN[C@@]2(C)C[C@H](O[C@H]3[C@H](Oc4c5cc6cc4Oc4ccc(cc4Cl)[C@@H](O)[C@@H](NC(=O)[C@@H](CC(C)C)NC)C(=O)N[C@@H](CC(N)=O)C(=O)N[C@H]6C(=O)N[C@H]4C(=O)N[C@H](C(=O)N[C@H](C(=O)O)c6cc(O)cc(O)c6-c6cc4ccc6O)[C@H](O)c4ccc(c(Cl)c4)O5)O[C@H](CO)[C@@H](O)[C@@H]3O)O[C@@H](C)[C@H]2O)cc1 | ≤7.812 ng/mL |
| CCCCCCNC(N)=Nc1ccc(CNC2(C)CC(OC3C(Oc4c5cc6cc4Oc4ccc(cc4Cl)C(O)C4NC(=O)C(NC(=O)C6NC(=O)C(CC(N)=O)NC(=O)C(NC(=O)C(CC(C)C)NC)C(O)c6ccc(c(Cl)c6)O5)c5ccc(O)c(c5)-c5c(O)cc(O)cc5C(C(=O)O)NC4=O)OC(CO)C(O)C3O)OC(C)C2O)cc1 (stereo not drawn) | 62.5 ng/mL |

====

AC50 overview
System: HepG2 human hepatocellular carcinoma cells
protocol details: Cytotoxicity assay for HepG2 (MTT)
Type: cell-based
test parameters: MTT, HepG2, 24 h, 10% FBS, n = 3

| smi | AC50 |
| --- | --- |
| CCCCCCCNC(N)=Nc1ccc(CN[C@@]2(C)C[C@H](O[C@H]3[C@H](Oc4c5cc6cc4Oc4ccc(cc4Cl)[C@@H](O)[C@@H](NC(=O)[C@@H](CC(C)C)NC)C(=O)N[C@@H](CC(N)=O)C(=O)N[C@H]6C(=O)N[C@H]4C(=O)N[C@H](C(=O)N[C@H](C(=O)O)c6cc(O)cc(O)c6-c6cc4ccc6O)[C@H](O)c4ccc(c(Cl)c4)O5)O[C@H](CO)[C@@H](O)[C@@H]3O)O[C@@H](C)[C@H]2O)cc1 | > 100 µM |
| CCCCCCN(CCCCCC)C(N)=Nc1ccc(CN[C@@]2(C)C[C@H](O[C@H]3[C@H](Oc4c5cc6cc4Oc4ccc(cc4Cl)[C@@H](O)[C@@H](NC(=O)[C@@H](CC(C)C)NC)C(=O)N[C@@H](CC(N)=O)C(=O)N[C@H]6C(=O)N[C@H]4C(=O)N[C@H](C(=O)N[C@H](C(=O)O)c6cc(O)cc(O)c6-c6cc4ccc6O)[C@H](O)c4ccc(c(Cl)c4)O5)O[C@H](CO)[C@@H](O)[C@@H]3O)O[C@@H](C)[C@H]2O)cc1 | > 100 µM |

====

Test system: E. faecium E7314
protocol details: microbe, parasite or virus in culture
Assay type: cell-based, Enterococcus faecium
test parameters: Enterococcus faecium, VRE
result type: MIC (µg/mL)

| molecule | tested system | result type | value relation sign | assay value |
| --- | --- | --- | --- | --- |
| CN[C@H](CC(C)C)C(=O)N[C@H]1C(=O)N[C@@H](CC(N)=O)C(=O)N[C@H]2C(=O)N[C@H]3C(=O)N[C@H](C(=O)N[C@H](C(=O)O)c4cc(O)cc(O)c4-c4cc3ccc4O)[C@H](O[C@H]3C[C@](C)(N)[C@@H](O)[C@H](C)O3)c3ccc(c(Cl)c3)Oc3cc2cc(c3O[C@@H]2O[C@H](CO)[C@@H](O)[C@H](O)[C@H]2O[C@H]2C[C@](C)(NCc3ccc(-c4ccc(Cl)cc4)cc3)[C@@H](O)[C@H](C)O2)Oc2ccc(cc2Cl)[C@H]1O | E. faecium E7314 | MIC | = | 0.125 |
| CN[C@H]1C(=O)N[C@@H]2Cc3ccc(cc3)Oc3cc4cc(c3O[C@@H]3O[C@H](C(=O)O)[C@@H](O)[C@H](O)[C@H]3NC(=O)CCCCCCCCC(C)C)Oc3ccc(cc3Cl)[C@@H](O)[C@@H]3NC(=O)[C@H](NC(=O)[C@@H]4NC(=O)[C@@H](NC2=O)c2cc(cc(O)c2Cl)Oc2cc1ccc2O)c1ccc(O)c(c1)-c1c(O[C@H]2O[C@H](CO)[C@@H](O)[C@H](O)[C@@H]2O)cc(O)cc1[C@@H](C(=O)NCCCN(C)C)NC3=O [Dalbavancin, reference compound] | E. faecium E7314 | MIC | = | 0.0156 |
| CN[C@H](CC(C)C)C(=O)N[C@H]1C(=O)N[C@@H](CC(N)=O)C(=O)N[C@H]2C(=O)N[C@H]3C(=O)N[C@H](C(=O)N[C@H](C(=O)O)c4cc(O)cc(O)c4-c4cc3ccc4O)[C@H](O)c3ccc(c(Cl)c3)Oc3cc2cc(c3O[C@@H]2O[C@H](CO)[C@@H](O)[C@H](O)[C@H]2O[C@H]2C[C@](C)(N)[C@H](O)[C@H](C)O2)Oc2ccc(cc2Cl)[C@H]1O [Vancomycin, reference compound] | E. faecium E7314 | MIC | = | 128 |
| CCCCCCCCCCNCCN[C@@]1(C)C[C@H](O[C@H]2[C@H](Oc3c4cc5cc3Oc3ccc(cc3Cl)[C@@H](O)[C@@H](NC(=O)[C@@H](CC(C)C)NC)C(=O)N[C@@H](CC(N)=O)C(=O)N[C@H]5C(=O)N[C@H]3C(=O)N[C@H](C(=O)N[C@H](C(=O)O)c5cc(O)c(CNCP(=O)(O)O)c(O)c5-c5cc3ccc5O)[C@H](O)c3ccc(c(Cl)c3)O4)O[C@H](CO)[C@@H](O)[C@@H]2O)O[C@@H](C)[C@H]1O [Telavancin, reference compound] | E. faecium E7314 | MIC | ≤ | 0.00781 |

The reported measurements were obtained from patent US20230174584A1.
